- System: MC3T3-E1
- assayNotes: Induction of osteoblast proliferation in mouse MC3T3-E1 cells assessed a growth rate relative to untreated control at 10^-8 mol/L after 48 hrs by MTT assay
- Type: functional
Reported Activity values follow for various compounds

Example entries begin here.
compound | systemUnderTest | Activity
CC(=O)CCc1c(-c2ccccc2Cl)oc2c3c(cc(O)c2c1=O)OC(C)(C)C=C3 | MC3T3-E1 | 0.06%
CC1(C)C=Cc2c(cc(O)c3c(=O)c(CCC(C)(O)c4ccccc4)c(-c4ccccc4Br)oc23)O1 (stereo not given) | MC3T3-E1 | 8.56%
CC1(C)C=Cc2c(cc3oc(-c4ccccc4Cl)c(CCC(C)(O)c4ccc(F)cc4)c(=O)c3c2O)O1 (stereo not given) | MC3T3-E1 | 6.83%
CC(O)CCc1c(-c2ccccc2Br)oc2cc3c(c(O)c2c1=O)C=CC(C)(C)O3 (stereo not given) | MC3T3-E1 | -0.52%

# ---- query compound ----
Request: May I ask what Activity has been recorded for CC(=O)CCc1c(-c2ccccc2Br)oc2cc3c(c(O)c2c1=O)C=CC(C)(C)O3 ?
Result: 0.38%
